Data origin: patent US6191282A

Tested on: gel-filtered human thrombocytes
testDescription: Inhibition of the aggregation of gel-filtered human thrombocytes following stimulation with ADP or thrombin (Test method 1)
Type: cell-based
testConditions: Thrombin-stimulated (0.1 U/ml thrombin), 1 mg/ml fibrinogen, 37° C., GFP from 2-4 donors; read-out: IC50, inhibition of thrombocyte aggregation, Thrombin-stimulated
parameter: IC50 (nM)
Reply numerically in nM, unit not repeated.

Entry CC1(c2ccc(C(=N)N)cc2)NC(=O)N(CC(=O)N[C@@H](CC(=O)O)C(=O)N[C@H](C(=O)O)c2ccccc2)C1=O (single isomer, unassigned) [Example 22] : reported IC50 = ?
50

Entry CC1(c2ccc(C(=N)N)cc2)NC(=O)N(CC(=O)N[C@@H](CC(=O)O)C(=O)N[C@H](C(=O)O)c2ccccc2)C1=O (single isomer, unassigned) [Example 21] : reported IC50 = ?
500

Entry CC1(c2ccc(C(=N)N)cc2)NC(=O)N(CC(=O)N[C@@H](CC(=O)O)c2ccccc2)C1=O (single isomer, unassigned) [Example 58] : reported IC50 = ?
25

Entry CC1(c2ccc(C(=N)N)cc2)NC(=O)N(CC(=O)N[C@H](CC(=O)O)c2ccccc2)C1=O (single isomer, unassigned) [Example 59] : reported IC50 = ?
40000

Entry CC1(c2ccc(C(=N)N)cc2)NC(=O)N(CC(=O)N[C@@H](CC(=O)O)c2ccccc2)C1=O (single isomer, unassigned) [Example 57] : reported IC50 = ?
5000

Entry CC1(c2ccc(C(=N)N)cc2)NC(=O)N(CC(=O)N[C@H](CC(=O)O)c2ccccc2)C1=O (single isomer, unassigned) [Example 60] : reported IC50 = ?
4000

Entry CCN1C(=O)N(CC(=O)N[C@@H](CC(=O)O)C(=O)N[C@H](C(=O)O)c2ccccc2)C(=O)C1(C)c1ccc(C(=N)N)cc1 (stereo partly shown) : reported IC50 = ?
80
